Entry source: paper PMC11249646

system.under.test: CIB1 and αIIb interaction (CIB1-GST : F-αIIb peptide) (Homo sapiens)
Construct: made in house; host or cells: BL-21 plus RIL cells (E. coli)
Sequence (Q99828 whole entry): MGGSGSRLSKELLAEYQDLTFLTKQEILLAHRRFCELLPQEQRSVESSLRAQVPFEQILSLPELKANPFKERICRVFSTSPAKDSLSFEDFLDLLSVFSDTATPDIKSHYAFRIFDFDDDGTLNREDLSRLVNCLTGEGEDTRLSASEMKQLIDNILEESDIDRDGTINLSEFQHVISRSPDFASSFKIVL
test.protocol: FP assay, 1536-well qHTS format (primary and confirmatory screen)
Type: binding
condition.notes: confirmatory screen; read-out: CONFIRMATORY SCREEN IC50
Give measured pIC50 for each item. Keep answers brief.
Numbers only, as −log10 of the molar value.

Known pIC50 results, listed for orientation:
>  <molecule>
Cc1ccc(C(=O)Nc2ccc(S(=O)(=O)O)c3cc(S(=O)(=O)O)cc(S(=O)(=O)O)c23)cc1NC(=O)c1cccc(NC(=O)Nc2cccc(C(=O)Nc3cc(C(=O)Nc4ccc(S(=O)(=O)O)c5cc(S(=O)(=O)O)cc(S(=O)(=O)O)c45)ccc3C)c2)c1

>  <pIC50>
5.10

$$$$
>  <molecule>
COC(=O)C12C(=O)C(C)(O)C(=O)C1(C)C(C)=CC1C34CCC(OC3=O)C(C)(CO)C4CCC12C (stereo not drawn)

>  <pIC50>
4.75

$$$$

Okay, next one:
Case O=S(=O)(c1ccc2nc(Cl)c(Cl)nc2c1)N1CCN(S(=O)(=O)c2c(F)cccc2F)CC1 , CIB1 and αIIb interaction (CIB1-GST : F-αIIb peptide) (Homo sapiens), pIC50 recorded as 5.25
